All figures here come from patent US20100009956A1.

biological target: UniProt:Q8IIL0; assay: Falcipain-3 enzymatic assay (assay 1); assay type: biochemical
Sequence (Q8IIL0 243-492): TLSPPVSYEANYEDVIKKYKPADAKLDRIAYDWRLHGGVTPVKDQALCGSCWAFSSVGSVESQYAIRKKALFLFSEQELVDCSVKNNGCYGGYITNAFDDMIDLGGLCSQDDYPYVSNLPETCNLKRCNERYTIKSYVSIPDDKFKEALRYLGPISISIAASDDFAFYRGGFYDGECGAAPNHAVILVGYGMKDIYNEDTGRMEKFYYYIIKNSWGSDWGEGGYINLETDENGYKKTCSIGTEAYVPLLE
pIC50: −log10 of the molar value. Structures can show the parent of a compound that is named as a salt.
Would you kindly list pIC50 for each of these molecules?

These recorded examples may help you get a feel for the data.
INSERT INTO results (molecule, study_system, reported_measurement) VALUES
  ('CN1CCN(C(=O)C2CCN(Cc3ccc(C(=O)NN(c4nc(C#N)ncc4Cl)C4CCOCC4)cc3)CC2)CC1 [Example 36, trifluoroacetate]', 'UniProt:Q8IIL0', '6.82 to 7.82'),
  ('CN1CCC(CN2CCN(Cc3cccc(C(=O)NN(c4nc(C#N)ncc4Br)C4CCCCC4)c3)CC2)CC1 [Example 28, trifluoroacetate]', 'UniProt:Q8IIL0', '7.82 to 8.60'),
  ('CN1CCN(Cc2ccc(C(=O)NN(CC(C)(C)C)c3nc(C#N)ncc3Br)cc2)CC1 [Comparative Example 39, trifluoroacetate, reference compound]', 'UniProt:Q8IIL0', '6.60 to 6.82'),
  ('N#Cc1ncc(Br)c(N(NC(=O)c2cccc(CN3CCC(N4CCOCC4)CC3)c2)C2CCCCC2)n1 [Example 24, trifluoroacetate]', 'UniProt:Q8IIL0', '7.82 to 8.60'),
  ('CN1CCN(C(=O)C2CCN(Cc3cccc(C(=O)NN(c4nc(C#N)ncc4Br)C4CCCCC4)c3)CC2)CC1 [Example 23, trifluoroacetate]', 'UniProt:Q8IIL0', '7.82 to 8.60');

Turning now to a further molecule:
## Task // returns reported pIC50 for input CN(CCN(C)C(=O)OC(C)(C)C)Cc1ccc(C(=O)NN(c2nc(C#N)ncc2Cl)C2CCCC2)cc1 [Example 84, trifluoroacetate]
## Result 7.82 to 8.60
